# Tested on: LXRb:RXRa (NR concentration 270 nM, RXRa partner concentration 90 nM)
# ASSAY EXPLANATION: PBM binding z-score (relative to random genomic background probes); higher = stronger binding; sequences stand for … in GC…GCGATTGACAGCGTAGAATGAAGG
Threshold check on PBM binding z-score: at or above 0.5 gives rule met, strictly below gives rule not met.

- GCTAGCAGGCCATTTCGGTCACTCAATGACGGGC: rule not met
- CCTACTGGGCCACGAAATGTCATTGATTCAGTGA: rule not met
- TCGATTAGGTTAGTCGGGGCATTCAGCCAACATA: rule met
- TGTCGGAGGACACGAAAGGTCAGAGCTCGACATC: rule met
- CCTGCTAGGTCATTGTCAGCTAATCTACAGTATG: rule met
- GCAGATAGGTAATACAAGGTGAAAGTCCGATTGT: rule not met
- ATCTCTAGGTAAAAGTCCAGTGAATCCCGAGGAT: rule not met
- CAGCCTAGGTCAGCGCCAGTATAGGAGGAACGTT: rule met
- TCTATTAGTTGAAGGGCAAACGACGAGTCCGTTT: rule met
- ATCTCTAGATAAGACTCAGTTCAGTGAAGAACGC: rule not met
- TCGAGTAGGTTACCAATGGAGCATTCAGCTTTCT: rule not met
- CCTAGCAGGCCAGGGTCAATCAAGCATTTCGCTT: rule met
- ATCTCTAGGTAGCAAGTTCAGTGAAAGAGAGGAC: rule not met
- TCGATTAGGTTACCAATGGGGCATTCAGCTTTCT: rule met
- TGAATGAGGCTATAAGATCAGGGAACGTTGCAAA: rule not met
- CCTATGAGTTGACCATAAGGGCAACCGAAGCTCG: rule not met
- GCATATAGGTAATACAAGCTGAAAGTCCGATTGT: rule not met
- GCGACTGGGGCAAAGCAGGTTACCAAAAGGTTGG: rule not met
- CCTTACGGGTCACTCCAGGTTATAGCATCGGAGT: rule met
- CCTACTGGGCCATCCAGAGGTCATTGATCATATG: rule met
- TCATATAGGTAAATGCTAGGTTAAAGTCCGATCT: rule met
- AGAACGAGGGCACGTTGAGTTGATAGCAGAGTAG: rule not met
- ATATGTAGGATAAGGGTCATTCAGGTTGGTTCGC: rule met
- TCTTGTAGATCAACAGGAGGCTAAGAAAGATCGA: rule not met
- ACGAGCAGGCCAAGGGTCACTCAAGATTAGTCCG: rule met
- ATTTCTAGGTAACCAAGTTCAGTGAATGCCGAAC: rule met
